- Tested on: MS2 coat protein
- procedure.details: apparent KD of MS2 coat protein; designed switch direction (-1 OFF switch, 1 ON switch): -1; higher = weaker reporter binding
- test.context: input ligand: none
Classification by apparent KD of MS2 coat protein follows these ranges: small value: < 30 nM; mid value: ≥ 30 nM and < 200 nM; large value: ≥ 200 nM

- sequence.string: "UCCAGGCGAGGAUAUACAAAGAUUUUUUCGUUUAGUCUCGAACAUGAGGAUCACCCAUGUAGAAGGUGCUUCAC [JR_Ex2_Sub011] (Eterna round: R97, puzzle: Exclusion 2)"
  answer.label: "mid value"
- sequence.string: "CUGAGGUAGCGGUCCUAUGACAUGAGGAUCACCCAUGUACCUUGCUUUGAGCUAUUUGCUCGUCUUAUGAUUCUCGG [Mat - Sensor v3 - turn-off var 1 - JL Mod - D40] (Eterna round: R96, puzzle: Sensor v3, turn-off variant 1)"
  answer.label: "large value"
- sequence.string: "CUUGUUUAUGUAGGAUAUGCCUGGCGUGCCUUUGCAGAAGGACAUGAGGAUCACCCAUGUAUUGCGGUCUGCGUUCAGAUCGCU [salish99_ExNG1_r4_044] (Eterna round: R96, puzzle: Exclusion NG 1)"
  answer.label: "mid value"
- sequence.string: "AGCCUAGCAGGAUAUGCCCGGGAUAACAUGAGGAUCACCCAUGUGACCGAUUGAUGUCUUGCAGAAGGGCUAGGGA [JL-EX5-4.02 ViennaUCT mod] (Eterna round: R97, puzzle: Exclusion 5)"
  answer.label: "small value"
- sequence.string: "GCCGAAAAUGUGAGGAUAUACCUAUGGAUACAUAGGUAGAAGGCACAUGAGGAUCACCCAUGUGUUUCAACGGC [Eli bmx4 4.21] (Eterna round: R97, puzzle: Brourd's mod of Exclusion 4)"
  answer.label: "small value"
- sequence.string: "UGUUGUCGCGUAGGAUAUGAGGAUCACCCAUAUAGAGGAUAUGAAAAGAAGGCUCUGAGGAUUACCCAGAAGGACGGGACAACU [pwkr exNG2 2xF5 2xFMN.22] (Eterna round: R96, puzzle: Exclusion NG 2)"
  answer.label: "mid value"
- sequence.string: "AUCAUGAUAGGAUAUACAUGAGGAUCACCCAUGUCCCACCCGUUACUUCUGGCCCUUUGUAGAAGGAUCGUCAA [Exy#21] (Eterna round: R97, puzzle: Exclusion 3)"
  answer.label: "small value"
- sequence.string: "CUCGUGCAGCAAAGCUGUACGAGUACAUGAGGAUCACCCAUGUAGGAUAUGGUACGCAAAGCGUGCUAGAAGGAUAUGUGUAGG [Mat - Exclusion NG 3 - Mod of JL - D87] (Eterna round: R96, puzzle: Exclusion NG 3)"
  answer.label: "mid value"
- sequence.string: "GUCAGCUCGUCAGGAUAUGCACAUGAGGAUCACCCAUGUAAGAUCAAGCUGCUUCGGCAGCAAGUGCAGAAGGGACGAGCUGAU [ENG2/9-B3] (Eterna round: R96, puzzle: Exclusion NG 2)"
  answer.label: "large value"

----------
- System: MS2 coat protein
- procedure.details: apparent KD of MS2 coat protein; designed switch direction (-1 OFF switch, 1 ON switch): -1; higher = weaker reporter binding
- test.context: Eterna round: R95; input ligand: FMN 200 uM

- sequence.string: "AGUACUAACACGAAAGUGUUAGUACAAUAAGCUUGUGAAACAUGAGGAUCACCCAUGUCCUCAUAUGCUCGUCUUAU [salish99_TOv2_r3_053] (puzzle: Sensor v3, turn-off variant 2)"
  apparent KD of MS2 coat protein: "471 nM"
- sequence.string: "AAUAACAAGUAGGAUCCUAACAUGAGGAUCACCCAUGUGCUCGUCUUAUAAAGUACUAUCACGAAAGUGAUAGUACA [Sensor 3, v1 - 53] (puzzle: Sensor v3, turn-off variant 1)"
  apparent KD of MS2 coat protein: "44.4 nM"
- sequence.string: "GAAAAGGUAGGAUAUACGAAAAAAAAUGGUAGAAAAAAAACACAUGAGGAUCACCCAUGUAGAAGGACCAAAAG [salish99_ex2_r3_071] (puzzle: Exclusion 2)"
  apparent KD of MS2 coat protein: "23 nM"
- sequence.string: "AAGAAACAUGAGGAUCACCCAUGUGAGGAUAUGAUGAAGAAAAGAAAAGAAAGAAGAGUCAGAAGGCACAAAGG [salish99-ex1_r3_064] (puzzle: Exclusion 1)"
  apparent KD of MS2 coat protein: "96 nM"
- sequence.string: "GACAGUUCGGAGGAUAUCCAGAACUAAGAACAAGGAGAAGGCCGAACAUGAGGAUCACCCAUGUGUGUUCCCAU [Isdiorzaar] (puzzle: Exclusion 6)"
  apparent KD of MS2 coat protein: "19.4 nM"
